Entries and their Geo Mean Fluorescence
molecular target: T1, human TrkA receptor on the cell surface (human, UniProt P04629 33-796); experiment: flow cytometry on TF-1 cells, 4 µg/ml; design: reference not given here
T1 construct: whole, on cells; PC12-hTrkA: high density; also called hTrkA; huTrkA
T1 sequence (P04629 33-796): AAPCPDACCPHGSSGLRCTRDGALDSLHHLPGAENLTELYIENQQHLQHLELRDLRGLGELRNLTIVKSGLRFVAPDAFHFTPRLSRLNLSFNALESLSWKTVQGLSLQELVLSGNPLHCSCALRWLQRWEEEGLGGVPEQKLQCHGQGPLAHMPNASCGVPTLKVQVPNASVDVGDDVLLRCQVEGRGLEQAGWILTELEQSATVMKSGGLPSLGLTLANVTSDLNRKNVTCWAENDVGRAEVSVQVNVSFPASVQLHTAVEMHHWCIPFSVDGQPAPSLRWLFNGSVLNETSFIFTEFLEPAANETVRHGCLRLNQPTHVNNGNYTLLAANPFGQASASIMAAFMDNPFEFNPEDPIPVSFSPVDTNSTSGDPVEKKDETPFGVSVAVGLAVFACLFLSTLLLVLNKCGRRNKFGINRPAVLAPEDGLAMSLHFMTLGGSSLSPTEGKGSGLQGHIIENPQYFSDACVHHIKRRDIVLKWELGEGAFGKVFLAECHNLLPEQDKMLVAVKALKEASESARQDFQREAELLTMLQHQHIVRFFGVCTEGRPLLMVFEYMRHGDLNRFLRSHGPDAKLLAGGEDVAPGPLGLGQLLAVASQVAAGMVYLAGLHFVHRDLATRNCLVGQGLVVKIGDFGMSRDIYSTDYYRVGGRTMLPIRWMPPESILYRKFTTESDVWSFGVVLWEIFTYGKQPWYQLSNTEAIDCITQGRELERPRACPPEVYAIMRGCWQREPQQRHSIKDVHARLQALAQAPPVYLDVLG
Provide a numeric answer; units are not to be included.

BXhVH2VL4 (antibody, human IgG1, V domains shown, Human IgG1 constant regions (IgG1 expression vectors); COS-7 supernatant; also called hVH2/hVL4) VH: EVQLLESGGGLVQPGGSLRLSCAASGFTFSTYTMSWVRQTPGKRLEWVAYISKGGGSTYYPDTVKGRFTISRDNSKNTLYLQMNSLRAEDTAVYYCAKGAMYGNDFFYPMDYWGQGTTVTVSS VL: QIVLTQSPATLSLSPGERATLSCSASSSVSYMHWYQQKPGQSPRLLIYTTSNLASGIPSRFSGSGSGTDFTLTISSLEPEDAADYYCHQWSSYPWTFGGGTKLEIK | 6.1
BXhVH3VL6 (antibody, human IgG1, V domains shown, Human IgG1 constant regions (IgG1 expression vectors); COS-7 supernatant; also called hVH3/hVL6) VH: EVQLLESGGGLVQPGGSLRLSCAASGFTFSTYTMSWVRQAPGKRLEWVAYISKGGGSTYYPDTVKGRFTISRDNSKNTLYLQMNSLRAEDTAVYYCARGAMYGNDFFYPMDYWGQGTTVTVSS VL: EIVLTQSPATLSLSPGEEATLSCSASSSVSYMHWYQQKPGQSPRLLIYTTSNLASGIPSRFSGSGSGTFYTLTISSLEPEDAADYYCHQWSSYPWTFGGGTKLEIK | 6.4
HuMNACWOv (antibody, V domains shown, Variant of HuMNACWO whose heavy chain CDR3 is replaced with that of muMNACEP; also called hVHWOv/hVLWO; HuVHWOv/HuVLWO) VH: EVQLLESGGGLVQPGGSLRLSCAASGFTFSTYTMSWARQAPGKGLEWVAYISKGGGSTYYPDTVKGRFTISRDNSKNTLYLQMNSLRAEDSAVYYCARGAMYGNDFFYPMDYWGQGTLVTVSS VL: DIVLTQSPSSLSASVGDRVTITCSASSSVSYMHWYQQKPGQAPKLLIYTTSNLASGVPSRFSGSGSGTDYTLTISSLQPEDVATYYCHQWSSYPWTFGGGTKVEIK | 8.9

Q: Would you mind telling me what Geo Mean Fluorescence value was observed for BXhVH1VL4 (antibody, human IgG1, V domains shown, Human IgG1 constant regions (IgG1 expression vectors); COS-7 supernatant; also called hVH1/hVL4) VH: EVKLLESGGGLVQPGGSLRLSCAASGFTFSTYTMSWVRQTPGKGLEWVAYISKGGGSTYYPDTVKGRFTISRDNSKNTLYLQMNSLRAEDTAVYYCAKGAMYGNDFFYPMDYWGQGTTVTVSS VL: QIVLTQSPATLSLSPGERATLSCSASSSVSYMHWYQQKPGQSPRLLIYTTSNLASGIPSRFSGSGSGTDFTLTISSLEPEDAADYYCHQWSSYPWTFGGGTKLEIK ?
Result: 5.1

Q: # input binder: BXhVH2VL6 (antibody, human IgG1, V domains shown, Human IgG1 constant regions (IgG1 expression vectors); COS-7 supernatant; also called hVH2/hVL6) VH: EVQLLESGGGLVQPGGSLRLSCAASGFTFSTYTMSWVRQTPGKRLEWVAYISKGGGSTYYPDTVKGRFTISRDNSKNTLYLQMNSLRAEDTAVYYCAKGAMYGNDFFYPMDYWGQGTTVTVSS VL: EIVLTQSPATLSLSPGEEATLSCSASSSVSYMHWYQQKPGQSPRLLIYTTSNLASGIPSRFSGSGSGTFYTLTISSLEPEDAADYYCHQWSSYPWTFGGGTKLEIK ; wanted: its Geo Mean Fluorescence
Result: 6.4
